Test system: Sonic hedgehog protein (Shh)
PROTOCOL: small-molecule binders of Shh protein, primary screen, biochemical, small-molecule microarray, 635/667 nm fluorescence (AID 1151);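 also: Shh protein binding to compounds spotted on small-molecule microarray slides; score combines spot fluorescence intensity with signal-to-noise across triplicate slides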
CONDITION_PARAMETERS: small-molecule microarray binding, 635 nm fluorescence; higher = more signal
PROPERTY_LABEL: composite z-score

compound="CC1(C)C(=O)C(c2ccccc2)=C2CN3C(=O)N(CCc4ccccc4)C(=O)C3(Cc3ccc(C(F)(F)F)cc3)C=C21 (stereo not drawn)" property_label="composite z-score" measured=-1.01
compound="CC1CC/C=C\\[C@H]2OC34C=CCN(CCN5CCOCC5)C(=O)[C@H]3N(C(C)CO)C(=O)[C@@H]4C2C(=O)O1 (stereo partly drawn)" property_label="composite z-score" measured=1.41
compound=COc1cccc(/C=C(\C#N)C(=O)Nc2c(C)n(C)n(-c3ccccc3)c2=O)c1 property_label="composite z-score" measured=0.241
compound=Cc1ccc(S[C@]2(C(=O)NCC(C)C)CC(=O)N(C3Cc4ccccc4C3)[C@@H]2c2ccc(CO)cc2I)cc1 property_label="composite z-score" measured=-0.51
compound=C=CCNC(=O)[C@H]1[C@@H]2C(=O)O[C@@H](c3ccccc3)[C@@H](c3ccccc3)N2[C@@H](c2ccc(O)cc2)[C@]12C(=O)N(C(=O)OCCOC)c1ccc(C#CCC(C(=O)OC)C(=O)OC)cc12 property_label="composite z-score" measured=1.75
compound=CC(C)CNC(=O)[C@@]1(c2ccc([N+](=O)[O-])cc2)CC(=O)N(C2CCCCC2)[C@@H]1c1ccc(CO)cc1 property_label="composite z-score" measured=-0.158
compound=COC(=O)C(CC#Cc1ccc2c(c1)[C@]1(C(=O)N2)[C@H](c2ccc(O)cc2)N2[C@H](c3ccccc3)[C@H](c3ccccc3)OC(=O)[C@H]2[C@@H]1C(=O)N1CCCCCCC1)C(=O)OC property_label="composite z-score" measured=0.777
compound=C[C@@]12COC[C@]13C=C(Br)[C@H](C2)[C@@]1(CO1)C3=O property_label="composite z-score" measured=-0.3

###

Recorded composite z-score, one value per entry.
PROTOCOL: small-molecule microarray binders of probe aShh, primary screen, biochemical, biotinylated probe, 635/667 nm fluorescence (AID 1114);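 also: probe is biotin-labelled aShh protein from a stem cell growth factor screen; measures binding of labelled protein to compounds printed on the slide; score merges feature fluorescence at 667 nm with signal-to-noise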
CONDITION_PARAMETERS: higher = more signal
PROPERTY_LABEL: composite z-score

molecular_string=Cc1ccc(S[C@]2(C(=O)NC(C)C)CC(=O)N(Cc3ccccc3Cl)[C@@H]2c2ccc(CO)cc2)cc1 property_label="composite z-score" measured=-0.0035
molecular_string=COc1ccc([Si](C)(C)[C@H]2[C@H](CCO)O[C@@]3(C(=O)N(Cc4ccc(N5C(=O)c6ccccc6Oc6ccccc65)cc4)c4ccccc43)[C@@H]2C)cc1 property_label="composite z-score" measured=0.0121
molecular_string=COC(=O)[C@@]1(Cc2ccccc2)[C@H]2c3cc(C(=O)N4CCCC4)n(CCSCCO)c3C[C@H]2CN1C(=O)c1ccccc1 property_label="composite z-score" measured=0.417

###

Recorded z-score, one value per entry.
PROTOCOL: A549 cell viability effects, profiling panel, calcein-AM fluorescence, 48 h, basal (AID 1162)
CONDITION_PARAMETERS: higher = more signal
PROPERTY_LABEL: z-score

compound=CCCCC(=C=CC[C@H](O)c1ccc(OCCO)cc1)C[C@H](O)COCc1ccccc1 measured=0.218
compound="COCC1C2CC[C@H]3C(OCc4ccc(OC)cc4)OC[C@]4(C)[C@H]3C2=C(CN4C(=O)OC(C)(C)C)[C@H](C)C1COC (stereo partly specified)" measured=-0.226
compound=C=CC[C@H](OC(=O)Nc1ccc(SC)cc1)c1ccc(OCCO)cc1 measured=-0.542
compound=O=C(CS)NCCCCCCNC(=O)[C@@H]1C[C@@H]2C(=O)NCC(=O)N2[C@@H]1c1ccc(O)cc1 measured=0.622
compound="O=C1C2C=CC(C(O)c3ccc(I)cc3)N(Nc3ccccc3)C2C(=O)N1c1ccccc1 (stereo unspecified)" measured=0.0685
compound=CN(C)C(=O)[C@@]1(CCC(=O)OC(C)(C)C)N=C(c2ccc(OCCCO)cc2)O[C@H]1c1ccccc1CN=[N+]=[N-] measured=-0.286
compound="COC(=O)C1=CC(CCCO)=CC(c2ccc(CN3CCCC3)cc2)N(Cc2cc3c(cc2Br)OCO3)C=C1C(=O)OC (stereo unspecified)" measured=-0.392
compound=[N-]=[N+]=NCc1ccccc1[C@H]1OC(c2ccc(OCCCO)cc2)=N[C@@]1(Cc1ccccc1)C(=O)NCCN1CCOCC1 measured=0.526
compound="CC(C)c1ccc(NN2C(C(O)Cc3ccccc3)C=CC3C(=O)N(c4ccccc4)C(=O)C32)cc1 (stereo unspecified)" measured=-0.989
compound="C=CCC(OC(C)=O)[C@@H]1[C@@H](N(Cc2cc3ccccc3o2)C(=O)c2ccc(-c3ccccc3)cc2)c2cc(OCCCO)ccc2N1C(=O)Cc1ccc(OC)cc1 (stereo partly specified)" measured=0.315
compound=COC(=O)[C@@]1(Cc2ccc(F)cc2)[C@H]2c3cc(C(=O)N4CCCC4)n(C)c3C[C@H]2CN1C(=O)c1ccccc1 measured=-0.893
compound=O=c1cccc(-c2ccco2)o1 measured=-0.69
compound=COc1ccc([Si](C)(C)[C@@H]2[C@@H](CC(=O)N3Cc4ccccc4C[C@H]3CO)O[C@]3(C(=O)N(Cc4ccc(N5CCC5=O)cc4)c4ccccc43)[C@H]2C)cc1 measured=-0.167
compound=O=C1N(CCS(=O)(=O)c2ccccc2)Cc2ccccc2[C@@H]2OC(c3ccc(OCCCO)cc3)=N[C@]12CCS(=O)(=O)c1ccccc1 measured=1.35
compound="C=CCC(OC(C)=O)[C@@H]1[C@@H](N(Cc2ccc(-c3ccccc3)cc2)C(=O)Cc2ccc(F)cc2)c2cc(OCCCO)ccc2N1C(=O)Cc1ccc2ccccc2c1 (stereo partly specified)" measured=0.234
compound=CCOC(=O)C1=CC[C@@H](c2ccccc2)N(S(=O)(=O)c2ccc(C)cc2)[C@H]1C=Cc1ccccc1 measured=-0.959

###

System: XIP peptide (Xip251-270)
PROTOCOL: small-molecule binders of XIP peptide, primary screen, biochemical, small-molecule microarray, fluorescence 635/667 nm, 0.5 µg/mL protein (AID 1183)
CONDITION_PARAMETERS: small-molecule microarray binding, fluorescence 635 nm; higher = more signal
Recorded composite z-score, one value per entry.
PROPERTY_LABEL: composite z-score

compound=CCOC(=O)C[C@H]1[C@H](OC(=O)c2ccc(-c3ccccc3)cc2)[C@@H](NC(=O)Cc2ccc(OC)cc2)c2cc(OCCCO)ccc2N1C(=O)Cc1ccc(OC)cc1 measured=-0.015
compound=COCCOC(=O)N1C(=O)[C@@]2(c3cc(C#CC4(O)CCCCCC4)ccc31)[C@H](C(=O)N1CCN(c3ncccn3)CC1)[C@H]1C(=O)O[C@H](c3ccccc3)[C@H](c3ccccc3)N1[C@@H]2c1ccccc1OCCO measured=0.61
compound=Cc1ccc(S[C@]2(C(=O)NCC(C)C)CC(=O)N(C3Cc4ccccc4C3)[C@@H]2c2ccc(CO)cc2I)cc1 measured=-0.658
compound=COCCOC(=O)N1C(=O)[C@@]2(c3cc(C#Cc4ccc(OC)cc4)ccc31)[C@H](c1ccc(OCCO)cc1)N1[C@H](c3ccccc3)[C@H](c3ccccc3)OC(=O)[C@H]1[C@@H]2C(=O)Nc1nc2ccccc2s1 measured=0.414
compound=CCOC(=O)C1=C[C@@H](C(C)(C)C)N(S(=O)(=O)c2ccc(C)cc2)[C@H]1c1ccccc1 measured=0.311
compound=COCCCNC(=O)[C@@]1(c2ccc([N+](=O)[O-])cc2)CC(=O)N(CC23CC4CC(CC(C4)C2)C3)[C@@H]1c1ccc(CO)cc1I measured=0.383
compound="CC(C)[C@H]1NC(=O)[C@@]23C(=O)N[C@@H](Cc4ccccc4)C2[C@H](C)[C@@]2(C)O[C@H]2C3/C=C/CCC/C=C/CNC(=O)[C@H](Cc2ccccc2)NC1=O (some centres undefined)" measured=0.741
compound=C=CCNC(=O)[C@@H]1[C@H]2C(=O)O[C@H](c3ccccc3)[C@H](c3ccccc3)N2[C@H](c2ccc(O)cc2)[C@@]12C(=O)Nc1ccc(C#CCC(C(=O)OC)C(=O)OC)cc12 measured=0.729
compound=CC(C)C(=C=CC[C@H](O)c1cccc(OCCO)c1)CCO measured=0.0075
compound=[N-]=[N+]=Nc1ccccc1C[C@]1(C(=O)NCc2ccccc2)COC(c2ccc(OCCCO)cc2)=N1 measured=0.651
compound="O=C1C2C=CC(C(O)c3cccc(O)c3)N(Nc3ccccc3)C2C(=O)N1c1ccccc1 (centres undefined)" measured=0.214
compound="CC(C)[C@H]1NC(=O)[C@@]23C(=O)N[C@@H](Cc4ccccc4)C2[C@H](C)[C@@]2(C)O[C@H]2C3/C=C/C/C=C\\CNC(=O)[C@H](Cc2ccccc2)NC1=O (some centres undefined)" measured=0.763
compound="C=CCC(OC(C)=O)[C@@H]1[C@@H](N(Cc2ccc(-c3cccc(C(F)(F)F)c3)o2)C(=O)Cc2ccc(OC)cc2)c2cc(OCCCO)ccc2N1C(=O)Cc1ccc2ccccc2c1 (some centres undefined)" measured=0.625
compound=COCCOC(=O)N1C(=O)[C@@]2(c3ccccc31)[C@H](c1ccccc1OCCO)N1[C@H](c3ccccc3)[C@H](c3ccccc3)OC(=O)[C@H]1[C@@H]2C(N)=O measured=0.784
compound="C=CCC(OC(C)=O)[C@@H]1[C@@H](N(Cc2cccc3ccccc23)C(=O)c2cccc3ccccc23)c2cc(OCCCO)ccc2N1C(=O)c1ccc2ccccc2c1 (some centres undefined)" measured=0.012
compound=CC(C)[Si]1(C(C)C)OCc2cc(-c3ccc(-c4ccc(Cl)c(Cl)c4)o3)nc(CCc3ccccc3)c21 measured=-0.355
compound=CN(C)CCCCNC(=O)[C@H]1C[C@H]2C(=O)N[C@@H](CCCC[N+](C)(C)C)C(=O)N2[C@H]1c1ccc(O)cc1 measured=0.674
compound=COCCOC(=O)N1C(=O)[C@@]2(c3cc(C#CCNC(N)=O)ccc31)[C@H](c1ccc(O)cc1)N1[C@H](c3ccccc3)[C@H](c3ccccc3)OC(=O)[C@H]1[C@@H]2C(=O)N1CCN(c2ncccn2)CC1 measured=0.796
compound=C[C@@]12COC[C@]13C=C(Br)[C@H](C2)[C@@]1(CO1)C3=O measured=-0.192
compound=C=CCN1C(=O)[C@@]2(O[C@@H](CCO)[C@H]([Si](C)(C)c3ccc(OC)cc3)[C@H]2C)c2cc(N3CCOC3=O)ccc21 measured=0.68
compound=COCCOC(=O)N1C(=O)[C@@]2(c3cc(C#Cc4ccc(OC)cc4)ccc31)[C@H](C(=O)NC[C@H](O)c1ccccc1)[C@H]1C(=O)O[C@H](c3ccccc3)[C@H](c3ccccc3)N1[C@@H]2c1ccc(OCCO)cc1 measured=0.591
compound=CC(C)C(=C=CC[C@@H](O)c1cccc(OCCO)c1)C[C@@H](O)COCc1ccccc1 measured=0.294
compound=C=C(/C(=C/C[C@@H](OC(C)=O)c1ccc(OCCO)cc1)c1cc(C(=O)OC)ccc1OC)C(C)C measured=0.819
compound=C=CCNC(=O)[C@@H]1[C@H]2C(=O)O[C@H](c3ccccc3)[C@H](c3ccccc3)N2[C@H](c2ccc(OCCO)cc2)[C@@]12C(=O)N(C(=O)OCCOC)c1ccc(C#CCCO)cc12 measured=0.69
